- Target under test: Human VPS34 (Homo sapiens, UniProt Q8NEB9)
- Construct: GST (N); host or cells: SF9 insect cells (baculovirus)
- Sequence (Q8NEB9 whole entry): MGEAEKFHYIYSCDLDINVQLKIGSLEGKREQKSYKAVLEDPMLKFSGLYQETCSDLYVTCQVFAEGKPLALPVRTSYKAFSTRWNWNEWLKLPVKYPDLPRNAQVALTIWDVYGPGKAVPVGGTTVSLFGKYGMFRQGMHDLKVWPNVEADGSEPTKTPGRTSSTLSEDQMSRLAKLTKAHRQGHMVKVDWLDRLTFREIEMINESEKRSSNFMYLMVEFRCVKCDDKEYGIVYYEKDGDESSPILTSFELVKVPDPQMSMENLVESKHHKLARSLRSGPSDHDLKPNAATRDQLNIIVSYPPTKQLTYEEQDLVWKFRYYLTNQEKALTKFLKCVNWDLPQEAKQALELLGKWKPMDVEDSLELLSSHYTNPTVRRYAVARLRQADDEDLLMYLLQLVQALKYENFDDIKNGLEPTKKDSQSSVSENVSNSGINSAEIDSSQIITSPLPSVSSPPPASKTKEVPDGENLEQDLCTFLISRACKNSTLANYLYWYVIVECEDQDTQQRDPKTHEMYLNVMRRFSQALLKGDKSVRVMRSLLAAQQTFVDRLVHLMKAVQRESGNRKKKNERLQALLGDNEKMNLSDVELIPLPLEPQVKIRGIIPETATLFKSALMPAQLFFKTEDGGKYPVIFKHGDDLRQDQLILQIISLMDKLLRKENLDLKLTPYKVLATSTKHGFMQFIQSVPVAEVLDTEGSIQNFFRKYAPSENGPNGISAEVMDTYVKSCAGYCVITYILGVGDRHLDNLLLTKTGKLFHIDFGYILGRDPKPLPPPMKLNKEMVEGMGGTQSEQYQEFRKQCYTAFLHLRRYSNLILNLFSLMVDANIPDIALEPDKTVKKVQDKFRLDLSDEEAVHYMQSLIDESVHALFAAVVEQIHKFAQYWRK
- Protocol summary: Human VPS34 Enzyme Assay (Adapta TR-FRET)
- Assay type: biochemical
- Condition details: compound at 1.111 μM; read-out: Average VPS34 % INH @ 1.111 μM
Measured metric: inhibition at 1.111 µM (%)
All answers are understood in %, so give the number only.

CC(=O)Nc1cc(-c2cc(-c3nnc[nH]3)c(N3CCCC(N(C)C)C3)o2)c(C)cn1 (stereo not shown)    129
CC(=O)Nc1cc(-c2cc(C(=O)O)c(-c3ccccc3Cl)o2)c(C)cn1    139
CC(=O)Nc1cc(-c2cc(-c3nnc[nH]3)c(-c3cc(CN4CCCC4)ccc3Cl)o2)c(C)cn1    129
COC(=O)Nc1cc(-c2nc(-c3nnc[nH]3)c(-c3ccccc3Cl)o2)c(C)cn1    117
CC(=O)Nc1cc(-c2nc(-c3nnc[nH]3)c(-c3ccccc3Cl)o2)c(C)cn1    118

Name the reported inhibition at 1.111 µM value associated with the compound CC(=O)Nc1cc(-c2nc(-c3ncco3)c(-c3ccccc3Cl)o2)c(C)cn1
132

Entry CC(=O)Nc1cc(-c2nc(-c3ccccc3Cl)c(-c3ccccn3)o2)c(C)cn1 has what inhibition at 1.111 µM?
43

Need inhibition at 1.111 µM of CC(=O)Nc1cc(-c2nc(C(=O)NCCC(C)C)c(-c3ccccc3Cl)o2)c(C)cn1 , thanks.
22

###

- Target under test: Human VPS34 (Homo sapiens)
- Construct: GST (N); host or cells: SF9 insect cells (baculovirus)
- Protocol summary: Human VPS34 Enzyme Assay (Adapta TR-FRET)
- Type: biochemical
- Condition details: compound at 1.111 μM; read-out: Average VPS34 % INH @ 1.111 μM
inhibition at 1.111 µM values for the compounds below.

Using the record for CC(=O)Nc1cc(-c2cc(C(N)=O)c(-c3ccccc3Cl)o2)c(C)cn1 , report its inhibition at 1.111 µM.
130%

Name the reported inhibition at 1.111 µM value associated with the compound CC(=O)Nc1cc(-c2nc(N3CCCS3(=O)=O)c(-c3nnc[nH]3)o2)c(C)cn1
115%

Would you mind telling me what inhibition at 1.111 µM value was observed for Clc1ccccc1-c1oc(-c2ccnc3[nH]ccc23)nc1-c1nnc[nH]1 ?
87%

Which measured inhibition at 1.111 µM value corresponds to Clc1ccccc1-c1oc(-c2ccncc2)nc1-c1nnc[nH]1 ?
19%

Quick check: inhibition at 1.111 µM of CC(=O)Nc1cc(-c2cc(C(=O)Nc3ccccc3)c(-c3ccccc3Cl)o2)c(C)cn1 ?
48%

Param item = CC(C)CC(=O)Nc1cc(-c2nc(-c3nnc[nH]3)c(-c3ccccc3Cl)o2)ccn1 ; retrieve measured inhibition at 1.111 µM.
21%

###

- Target under test: Human VPS34 (Homo sapiens, UniProt Q8NEB9)
- Construct: GST (N); host or cells: SF9 insect cells (baculovirus)
- Protocol summary: Human VPS34 Enzyme Assay (Adapta TR-FRET)
- Assay type: biochemical
- Condition details: compound at 1.111 μM; read-out: Average VPS34 % INH @ 1.111 μM
- Procedure: VPS34 (accession number GB:BC033004) was cloned into pDEST20-Thombin as N-terminal GST tagged fusion proteins using the Gateway system (Invitrogen, catalog#11804-013). […] 100 nL compounds in DMSO are added to wells of a 384 well microtitre plate (Greiner 780076). […] The plates are then incubated for 30 minutes at room temperature with shaking and then read on a BMG PheraStar Plus reader. […]
# inhibition at 1.111 µM per record follows
API: value field is a number in %; no unit string.

COCCC(=O)Nc1cc(-c2nc(-c3nnc[nH]3)c(-c3ccccc3Cl)o2)ccn1    104
CNC(=O)c1nc(-c2cc(NC(C)=O)ncc2C)oc1-c1ccccc1Cl    117
CC(=O)Nc1ccc(-c2nc(-c3nnc[nH]3)c(-c3ccccc3Cl)o2)cc1    7
CON(C)C(=O)c1cc(-c2cc(NC(C)=O)ncc2C)oc1-c1ccccc1Cl    89
CC(=O)Nc1cc(-c2cc(-c3ncco3)c(-c3ccccc3Cl)o2)c(C)cn1    144

Would you kindly look at the next entry?
Find the measured inhibition at 1.111 µM: item CC(=O)Nc1cc(-c2cc(C(=O)NCc3cccnc3)c(-c3ccccc3Cl)o2)c(C)cn1 , target or system Human VPS34 (Homo sapiens, UniProt Q8NEB9).
104
